species on record: Homo sapiens; test: Selectivity ratio of EC50 for human V1b receptor to EC50 for human OTR
Bridge positions count the residues as written; N and C are the ends. Square brackets hold non-standard residues; d marks the D form. Peptide text beside a SMILES is read from it. Mpa = O=C(O)CCS
value-kind: Ratio EC50

* CC(C)C[C@H](NC(=O)[C@@H]1CCCN1C(=O)[C@@H]1CSSCCC(=O)N[C@@H](Cc2ccc(O)cc2)C(=O)N[C@@H](Cc2ccccc2)C(=O)N[C@@H](CCC(N)=O)C(=O)N[C@@H](CC(N)=O)C(=O)N1)C(=O)NCC(N)=O ([Mpa]YFQNCPLG-NH2; disulfide 1-6) | 3.9
* CC[C@H](C)[C@@H]1NC(=O)[C@H](Cc2ccc(O)cc2)NC(=O)CCSSC[C@@H](C(=O)N2CCC[C@H]2C(=O)N[C@@H](CC(C)C)C(=O)NCC(N)=O)NC(=O)[C@H](CC(N)=O)NC(=O)[C@H](CCCNC(=N)N)NC1=O ([Mpa]YIRNCPLG-NH2; disulfide 1-6) | 7.5
* CC[C@H](C)[C@@H]1NC(=O)[C@H](Cc2ccc(O)cc2)NC(=O)CCSSC[C@@H](C(=O)N2CCC[C@H]2C(=O)N[C@@H](CC(C)C)C(=O)NNC(N)=O)NC(=O)[C@H](CC(N)=O)NC(=O)[C@H](CCC(N)=O)NC1=O | 970
* CC[C@H](C)[C@@H]1NC(=O)[C@H](Cc2ccc(O)cc2)NC(=O)CCSSC[C@@H](C(=O)N2C[C@@H](O)C[C@H]2C(=O)N[C@@H](CC(C)C)C(=O)NCC(N)=O)NC(=O)[C@H](CC(N)=O)NC(=O)[C@H](CCC(N)=O)NC1=O | 1200
* CC[C@H](C)[C@@H]1NC(=O)[C@H](Cc2ccc(O)cc2)NC(=O)CCSSC[C@@H](C(=O)N2CCC[C@H]2C(=O)N[C@@H](Cc2ccccc2)C(=O)NCC(N)=O)NC(=O)[C@H](CC(N)=O)NC(=O)[C@H](CCC(N)=O)NC1=O ([Mpa]YIQNCPFG-NH2; disulfide 1-6) | 44
* CC[C@H](C)[C@@H]1NC(=O)[C@H](Cc2ccc(O)cc2)NC(=O)CCSSC[C@@H](C(=O)N2CCC[C@H]2C(=O)N[C@@H](CCCNC(=N)N)C(=O)NCC(N)=O)NC(=O)[C@H](CC(N)=O)NC(=O)[C@H](CCC(N)=O)NC1=O ([Mpa]YIQNCPRG-NH2; disulfide 1-6) | 1.1
* CCCCCCC(NC(=O)[C@@H]1CCCN1C(=O)[C@@H]1CSSCCC(=O)N[C@@H](Cc2ccc(O)cc2)C(=O)N[C@@H]([C@@H](C)CC)C(=O)N[C@@H](CCC(N)=O)C(=O)N[C@@H](CC(N)=O)C(=O)N1)C(=O)NCC(N)=O (stereo partly specified) | 20

====

Target: Oxytocin receptor (Homo sapiens, UniProt P30559)
Sequence (P30559 whole entry): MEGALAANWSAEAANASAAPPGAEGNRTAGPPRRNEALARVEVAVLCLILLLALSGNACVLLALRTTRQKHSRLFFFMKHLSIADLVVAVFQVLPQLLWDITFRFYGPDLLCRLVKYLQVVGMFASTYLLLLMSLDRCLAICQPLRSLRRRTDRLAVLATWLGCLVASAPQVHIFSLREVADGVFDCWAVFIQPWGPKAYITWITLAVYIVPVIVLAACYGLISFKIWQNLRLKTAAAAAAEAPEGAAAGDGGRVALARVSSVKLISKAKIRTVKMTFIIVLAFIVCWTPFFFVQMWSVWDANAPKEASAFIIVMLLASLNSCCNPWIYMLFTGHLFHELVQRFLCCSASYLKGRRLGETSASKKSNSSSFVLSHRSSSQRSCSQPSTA
Experiment: Agonist activity at human OTR expressed in CHO cells assessed as calcium mobilization measured after 30 mins by Fluo-4-AM dye based FLIPR assay
Numbered stars: 1 amine (or outer) side, 2 acyl side, 3 side chain; on linkers, the order of the positions; unused ones are H or OH. Bridge positions count the residues as written; N and C are the ends. Square brackets hold non-standard residues; d marks the D form. Peptide text beside a SMILES is read from it. Hyp = O=C(O)[C@@H]1C[C@@H](O)CN1; tBuAla = CC(C)(C)C[C@H](N)C(=O)O; X1 = O=C(CCC[*:2])[*:1]; Mpa = O=C(O)CCS
value-kind: EC50 (pM)

- CC[C@H](C)[C@@H]1NC(=O)[C@H](Cc2ccc(O)cc2)NC(=O)CCSSC[C@@H](C(=O)N[C@@H](Cc2ccccc2)C(=O)N[C@@H](CC(C)C)C(=O)NCC(N)=O)NC(=O)[C@H](CC(N)=O)NC(=O)[C@H](CCC(N)=O)NC1=O ([Mpa]YIQNCFLG-NH2; disulfide 1-6): 120
- CC[C@H](C)[C@@H]1NC(=O)[C@H](Cc2ccc(O)cc2)NC(=O)CCCSC[C@@H](C(=O)N2C[C@H](O)C[C@H]2C(=O)N[C@@H](CC(C)(C)C)C(=O)NCC(N)=O)NC(=O)[C@H](CC(N)=O)NC(=O)[C@H](CCC(N)=O)NC1=O (YIQNC[Hyp][tBuAla]G-NH2; linker N-5 via X1): 7.2
- CC[C@H](C)[C@@H]1NC(=O)[C@H](Cc2ccc(O)cc2)NC(=O)CCSSC[C@@H](C(=O)N2CCC[C@H]2C(=O)N[C@@H](CC(C)C)C(=O)N[C@@H](CCC(=O)O)C(N)=O)NC(=O)[C@H](CC(N)=O)NC(=O)[C@H](CCC(N)=O)NC1=O ([Mpa]YIQNCPLE-NH2; disulfide 1-6): 9500
